These measurements were taken from ChEMBL document CHEMBL1125793.

# study-target: Angiotensin II receptor (Rattus norvegicus, UniProt P29089+P25095+P35351)
# Sequence (P29089 whole entry): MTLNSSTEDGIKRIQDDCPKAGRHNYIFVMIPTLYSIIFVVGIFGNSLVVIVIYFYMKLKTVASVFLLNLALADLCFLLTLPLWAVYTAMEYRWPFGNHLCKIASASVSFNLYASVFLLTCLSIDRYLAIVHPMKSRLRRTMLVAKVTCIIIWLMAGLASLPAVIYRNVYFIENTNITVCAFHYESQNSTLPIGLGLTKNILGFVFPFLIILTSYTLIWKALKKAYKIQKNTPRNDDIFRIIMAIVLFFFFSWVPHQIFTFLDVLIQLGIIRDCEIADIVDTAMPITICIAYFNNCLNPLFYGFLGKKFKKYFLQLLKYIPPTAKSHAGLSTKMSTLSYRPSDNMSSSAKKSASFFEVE
# Sequence (P25095 whole entry): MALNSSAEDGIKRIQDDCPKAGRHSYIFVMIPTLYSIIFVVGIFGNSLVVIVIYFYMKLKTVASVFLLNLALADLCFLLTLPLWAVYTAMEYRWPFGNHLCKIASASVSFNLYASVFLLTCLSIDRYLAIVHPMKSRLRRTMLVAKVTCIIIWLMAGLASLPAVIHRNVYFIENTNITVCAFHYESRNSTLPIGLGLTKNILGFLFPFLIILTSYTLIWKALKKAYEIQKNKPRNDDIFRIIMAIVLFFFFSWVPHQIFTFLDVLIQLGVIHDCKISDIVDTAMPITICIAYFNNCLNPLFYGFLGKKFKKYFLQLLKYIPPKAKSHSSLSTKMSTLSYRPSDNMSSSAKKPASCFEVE
# Sequence (P35351 whole entry): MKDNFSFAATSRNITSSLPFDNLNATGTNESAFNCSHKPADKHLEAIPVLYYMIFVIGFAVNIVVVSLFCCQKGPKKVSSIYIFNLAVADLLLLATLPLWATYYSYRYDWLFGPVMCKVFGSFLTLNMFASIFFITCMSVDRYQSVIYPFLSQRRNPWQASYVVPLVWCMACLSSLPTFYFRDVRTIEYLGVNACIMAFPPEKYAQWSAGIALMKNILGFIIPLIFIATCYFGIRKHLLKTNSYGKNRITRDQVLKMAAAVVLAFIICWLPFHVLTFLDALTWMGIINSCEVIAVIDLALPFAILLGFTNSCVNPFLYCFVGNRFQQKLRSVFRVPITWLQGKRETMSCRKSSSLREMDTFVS
# protocol-details: Binding affinity against Angiotensin II receptor, from rat adrenal gland
# Format: tissue-based
property-label: IC50 (nM)
Form entry: value (nM) — number only.

In: Any idea what its IC50 is? The compound is Cc1cc(Cn2cnc3c2C[C@@H](C(=O)O)N(C(=O)C(c2ccccc2)c2ccccc2)C3)ccc1O
Out: 56

In: Looking for the measured IC50 of O=C(O)C1Cc2c(ncn2Cc2ccccc2)CN1S(=O)(=O)Cc1ccccc1 (stereo not drawn) , can you help?
Out: 19000

In: What does the record list as IC50 for COc1ccc(Cn2cnc3c2C[C@@H](C(=O)O)N(C(=O)C(c2ccccc2)c2ccccc2)C3)cc1[N+](=O)[O-] ?
Out: 51

In: Which IC50 reading was recorded for the compound CC(=O)Nc1ccc(Cn2cnc3c2C[C@@H](C(=O)O)N(C(=O)C(c2ccccc2)c2ccccc2)C3)cc1 ?
Out: 350

In: Recorded IC50 of O=C(O)C1Cc2c(ncn2Cc2ccccc2)CN1C(=O)C(c1ccc(Cl)cc1)c1ccc(Cl)cc1 (stereo not drawn) , please.
Out: 6800

In: I'd like to know its IC50. The compound in question is CN(C(=O)N1Cc2ncn(Cc3ccccc3)c2CC1CO)c1ccccc1 (stereo not drawn)
Out: 1600

In: // query IC50 value for entry O=C(O)[C@@H]1Cc2c(ncn2CCC23CC4CC(CC(C4)C2)C3)CN1C(=O)C(c1ccccc1)c1ccccc1
Out: 130

In: Given O=C(O)[C@@H]1Cc2c(ncn2Cc2ccc3ccccc3c2)CN1C(=O)C(c1ccccc1)c1ccccc1 , state its recorded IC50.
Out: 270

In: Can you share its IC50? I mean this compound: COc1ccc(Cn2cnc3c2C[C@@H](C(=O)O)N(C(=O)C(c2ccccc2)c2ccccc2)C3)cc1F
Out: 260

In: Would you kindly share the measured IC50 for COc1ccc(Cn2cnc3c2C[C@@H](C(=O)O)N(C(=O)C2(c4ccccc4)CCCC2)C3)cc1C ?
Out: 840

In: Need IC50, item CC(=O)Nc1ccc(Cn2cnc3c2C[C@@H](C(=O)O)N(C(=O)C(c2ccccc2)c2ccccc2)C3)cc1C
Out: 89

In: So what does the record say about IC50 for Nc1ccc(Cn2cnc3c2C[C@@H](C(=O)O)N(C(=O)C(c2ccccc2)c2ccccc2)C3)cc1 ?
Out: 150

In: Could you tell me which IC50 is on file for CN(C)c1ccc(Cn2cnc3c2C[C@@H](C(=O)O)N(C(=O)C(c2ccccc2)c2ccccc2)C3)cc1 ?
Out: 85

In: Dear colleague, I am looking for the recorded IC50 of the following compound: CNC(=O)Nc1ccc(Cn2cnc3c2C[C@@H](C(=O)O)N(C(=O)C(c2ccccc2)c2ccccc2)C3)cc1C
Out: 44

In: Consider the compound O=C(C(c1ccccc1)c1ccccc1)N1CCc2c(ncn2Cc2ccccc2)C1 and give its measured IC50.
Out: 6100

In: Record request: IC50 value, item O=C(O)C1Cc2ncn(Cc3ccccc3)c2CN1C(=O)/C=C/c1ccccc1 (stereo not drawn)
Out: 29000

In: Which value of IC50 has been reported for O=C(O)[C@@H]1Cc2c(ncn2CCCc2ccccc2)CN1C(=O)C(c1ccccc1)c1ccccc1 in the records?
Out: 700

In: Suppose we examine the compound Cc1cc(Cn2cnc3c2CC(CO)N(C(=O)C(c2ccccc2)c2ccccc2)C3)ccc1N(C)C (stereo not drawn) ; what IC50 value has been reported?
Out: 200
